Hello, the source for this data is patent US20110059063A1, in case you need it.

# TGT: PAR-2 (on the cells of the FLIPR Ca2+ mobilization assay)
# Sequence (P55085 whole entry): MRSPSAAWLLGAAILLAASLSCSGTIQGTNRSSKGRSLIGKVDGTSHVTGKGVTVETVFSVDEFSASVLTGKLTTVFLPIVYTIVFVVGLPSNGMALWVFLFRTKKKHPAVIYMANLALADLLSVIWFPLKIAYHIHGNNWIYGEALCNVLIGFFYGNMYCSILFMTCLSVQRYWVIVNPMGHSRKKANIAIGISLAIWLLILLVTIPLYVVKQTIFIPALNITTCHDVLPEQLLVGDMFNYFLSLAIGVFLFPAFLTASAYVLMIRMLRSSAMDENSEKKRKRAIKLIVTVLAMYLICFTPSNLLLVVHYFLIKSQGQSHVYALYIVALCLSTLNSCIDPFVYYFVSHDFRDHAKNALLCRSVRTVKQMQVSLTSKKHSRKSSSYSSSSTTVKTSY
# ASSAY EXPLANATION: cell-based or functional assay
OBSERVATION TYPE: IC50, FLIPR assay for Ca2+ mobilization (nM)
# number only, unit nM dropped from output

Short answer for anti-PAR-2 antibody 1A1 (antibody, V domains shown, Human antibody from a XenoMouse hybridoma; also called monoclonal antibody 1A1) VH: EVQLVQSGAEVKKPGESLKISCKGSGYNFISHWIGWVRQMPGKGLEWMGMIYPGDSDTRYSPSFQGQVTISADKSINTAYLQWRSLKASDTAMYFCARHGGITGTTFYYDFGMDVWGQGTTVTVSS VL: SYELTQPPSVSVSPGQTARITCSGDALPKQYASWYQQKPGQAPLLVIYRDSERPSGLPERFSGSSSGTTVTLTISGVQAEDEADYYCQSADSGGSYVFGTGTKVTVL : IC50, FLIPR assay for Ca2+ mobilization was 2
